Could you please report measured normalized RNA/DNA level without ligand (log10) for the items listed next?
B1: library; a variant is named by its letters at N, in order (parent)
chain: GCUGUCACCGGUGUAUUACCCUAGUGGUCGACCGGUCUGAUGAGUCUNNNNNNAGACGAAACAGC

# Variants of: B1
# Procedure text: normalized RNA/DNA level without ligand (relative to sTRSVctl = 100) (log10 (% of sTRSVctl)); ligand: hypoxanthine (xanthine aptamer); higher = less ribozyme self-cleavage, higher mRNA level
# Measurement conditions: HEK293T, reporter: mCherry (pCS4076), ligand present: no
One number for each entry.

Solved cases (6 shown):
> print(dat)
   sequence.change  value
1           GUCUUA   1.87
2           ACAAGA   1.65
3           GUAAAA   1.82
4           CGGUCU   1.89
5           UGUUAA   1.84
6           CAAAAU   1.76

# batch: return normalized RNA/DNA level without ligand (log10) for each of the 4 variants below
1. UUUGUG
2. UGGUAU
3. GUGAAA
4. AUGUAA

a:
1: 1.76; 2: 1.71; 3: 1.66; 4: 1.68

Would you be so kind as to report normalized RNA/DNA level without ligand (log10) for each listed record?
1. UCAUUG
2. ACAUAC
3. GCCUGC
4. GGGUAU

a:
1. 1.72
2. 1.82
3. 1.86
4. 1.71

Please look at the items below and tell me normalized RNA/DNA level without ligand (log10) for each one, in order.
1. GCUUAG
2. UAGGGU
3. UGCCAU
4. CGAUCG
5. GCGAAG
6. CGCCCC
7. GAAAUG

a:
1: 1.4; 2: 1.5; 3: 1.82; 4: 1.84; 5: 0.925; 6: 1.92; 7: 1.44

Give measured normalized RNA/DNA level without ligand (log10) for every item shown.
1. GACUUC
2. UCGCGG
3. UACACA

a:
1.98
1.78
1.86

Record normalized RNA/DNA level without ligand (log10) for all entries; do not skip any.
1. AUCCUC
2. GCACGC
3. CAAAUG
4. GCUGCG
5. GCCAGA
6. AAUAAA

a:
[1.97, 1.86, 1.82, 1.6, 1.72, 1.76]

Lab note: each variant below needs its normalized RNA/DNA level without ligand (log10) filled in.
1. GGUAGA
2. AGAGCC
3. GACUGC

a:
1: 1.41; 2: 1.82; 3: 1.66

List reported normalized RNA/DNA level without ligand (log10) for each of these variants:
1. GGCUUC
2. AUUUAG
3. AUAUCA
4. UAAACU
5. CAGGUA
6. UUCCAC

a:
1. 1.98
2. 1.55
3. 1.81
4. 1.87
5. 1.57
6. 1.88

Go through the items and report each one's normalized RNA/DNA level without ligand (log10).
1. UAAUUA
2. ACAGGA

a:
1. 1.87
2. 1.66
